FYI, the data here is from patent US20220177587A1.

- assaySystem: huPD-L1 (Homo sapiens, UniProt Q9NZQ7)
- Sequence (Q9NZQ7 19-290): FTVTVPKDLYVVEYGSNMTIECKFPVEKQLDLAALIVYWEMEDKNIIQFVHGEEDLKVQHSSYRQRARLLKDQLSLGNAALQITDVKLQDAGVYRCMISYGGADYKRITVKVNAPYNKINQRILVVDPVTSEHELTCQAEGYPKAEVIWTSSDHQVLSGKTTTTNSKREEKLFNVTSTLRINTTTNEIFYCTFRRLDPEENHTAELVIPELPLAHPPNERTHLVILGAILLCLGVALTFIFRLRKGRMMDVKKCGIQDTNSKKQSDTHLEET
- methodDescription: Flow binding to CHO cells stably expressing PD-L1
- Parameters: huCTLA4 and huPD-L1, full-length mammalian surface expression constructs were generated; expressed in transfected cells; host or cells: CHO cells, lentiviral transduction, sorted to >98% purity
- testParameters: Table E19; CHO cells stably expressing PD-L1; 33.3 nM
Entries whose PD-L1 MFI at 33.3 nM is below 3000 take yes; entries at or above 3000 take no.

1. D46V/V68M (protein) VIHVTKEVKEVATLSCGHNVSVEELAQTRIYWQKEKKMVLTMMSGVMNIWPEYKNRTIFDITNNLSIMILALRPSDEGTYECVVLKYEKDAFKREHLAEVTLSVKAD	yes
2. M47V/N48K/V68M/K89N (protein) VIHVTKEVKEVATLSCGHNVSVEELAQTRIYWQKEKKMVLTMMSGDVKIWPEYKNRTIFDITNNLSIMILALRPSDEGTYECVVLKYENDAFKREHLAEVTLSVKAD	no
3. E35D/K89N (protein) VIHVTKEVKEVATLSCGHNVSVEELAQTRIYWQKDKKMVLTMMSGDMNIWPEYKNRTIFDITNNLSIVILALRPSDEGTYECVVLKYENDAFKREHLAEVTLSVKAD	yes
4. M47V/K89N (protein) VIHVTKEVKEVATLSCGHNVSVEELAQTRIYWQKEKKMVLTMMSGDVNIWPEYKNRTIFDITNNLSIVILALRPSDEGTYECVVLKYENDAFKREHLAEVTLSVKAD	yes
5. D46V/M47L/V68M (protein) VIHVTKEVKEVATLSCGHNVSVEELAQTRIYWQKEKKMVLTMMSGVLNIWPEYKNRTIFDITNNLSIMILALRPSDEGTYECVVLKYEKDAFKREHLAEVTLSVKAD	no
6. M47V/N48K/V68M (protein) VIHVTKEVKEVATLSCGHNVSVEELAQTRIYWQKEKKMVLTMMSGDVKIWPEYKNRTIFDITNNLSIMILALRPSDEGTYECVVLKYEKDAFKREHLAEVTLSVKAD	no
7. E35D/M47V/N48K (protein) VIHVTKEVKEVATLSCGHNVSVEELAQTRIYWQKDKKMVLTMMSGDVKIWPEYKNRTIFDITNNLSIVILALRPSDEGTYECVVLKYEKDAFKREHLAEVTLSVKAD	no
8. E35D/N48K/K89N (protein) VIHVTKEVKEVATLSCGHNVSVEELAQTRIYWQKDKKMVLTMMSGDMKIWPEYKNRTIFDITNNLSIVILALRPSDEGTYECVVLKYENDAFKREHLAEVTLSVKAD	no
9. E35D/D46V/M47V/V68M/L85Q (protein) VIHVTKEVKEVATLSCGHNVSVEELAQTRIYWQKDKKMVLTMMSGVVNIWPEYKNRTIFDITNNLSIMILALRPSDEGTYECVVQKYEKDAFKREHLAEVTLSVKAD	no
10. M47V/V68M (protein) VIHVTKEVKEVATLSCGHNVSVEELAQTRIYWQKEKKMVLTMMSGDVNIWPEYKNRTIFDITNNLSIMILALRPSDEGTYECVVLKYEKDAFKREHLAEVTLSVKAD	no
11. E35D/M47V/N48K/V68M/L85Q (protein) VIHVTKEVKEVATLSCGHNVSVEELAQTRIYWQKDKKMVLTMMSGDVKIWPEYKNRTIFDITNNLSIMILALRPSDEGTYECVVQKYEKDAFKREHLAEVTLSVKAD	no
12. V68M (protein) VIHVTKEVKEVATLSCGHNVSVEELAQTRIYWQKEKKMVLTMMSGDMNIWPEYKNRTIFDITNNLSIMILALRPSDEGTYECVVLKYEKDAFKREHLAEVTLSVKAD	yes
13. M47L/L85Q (protein) VIHVTKEVKEVATLSCGHNVSVEELAQTRIYWQKEKKMVLTMMSGDLNIWPEYKNRTIFDITNNLSIVILALRPSDEGTYECVVQKYEKDAFKREHLAEVTLSVKAD	no
14. E35D/D46V/L85Q: variant CD80 IgV-Fc, IgV SEQ ID NO:203 (protein) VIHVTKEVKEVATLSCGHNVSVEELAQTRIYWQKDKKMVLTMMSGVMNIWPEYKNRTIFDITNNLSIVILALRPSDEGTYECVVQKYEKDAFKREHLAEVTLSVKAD	no
